Parameter: growth inhibition. Scope: all listed entries.
assayRemarks: NCI Yeast Anticancer Drug Screen. Data for the mec2-1 strain (AID 157)
experimentalSetup: S. cerevisiae mec2-1 strain, active compounds read high; at 50.0 µM unless noted
About 79,000 compounds went through this panel and 15% of them were active in at least one assay; those are over-represented in the sample as a whole. Calls of active or inactive are those of the source. No stated cut-off is given here; in the data, active means growth inhibition above about 70%; inactive means the rest.

[[record]]
molecule = "CC(=O)c1cc2c(cc1O)oc1c(C)ccc(C)c12"
measurementname = "growth inhibition"
result = "-3.4% (inactive)"


Param item = O=[N+]([O-])c1cnccc1/C=C\c1ccccc1 ; retrieve measured growth inhibition.
3.15% (inactive)

I would be grateful if you could share the reported growth inhibition for O=C(O)CS(=O)c1ccc2c3c(cccc13)C(=O)c1ccccc1-2 (stereo unspecified) .
-12.5% (inactive)

# growth inhibition lookup, item COC(=O)C1=CO[C@@H](OC2OC(CO)C(O)C(O)C2O)[C@H]2[C@@H]1C=C[C@@]21C=C([C@H](C)OC(=O)/C=C/c2ccc(OC3OC(CO)C(O)C(O)C3O)cc2)C(=O)O1 (stereo partly specified)
-18.6% (inactive)

Sample N#CC1CCC[N-]C1.N#CC1CCC[N-]C1.[Cl][Pt+2][Cl] (stereo unspecified) — what was its growth inhibition?
4.75% (inactive)
